# Tested on: giant foxtail
# ASSAY_EXPLANATION: Test A preemergence
# Assay type: in vivo, Setaria faberii
# RECORDED_CONDITIONS: 500 g ai/ha, 0 to 100 scale where 0 is no effect and 100 is complete control
In this section, each of the compounds is paired with its reported Foxtail, Giant plant response rating.

FC(F)(F)c1cnn(-c2c(Cl)cccc2Oc2ncc(Cl)cn2)c1 [Compound 167]; 100
N#Cc1cnc(Oc2cccc(C=O)c2-n2cc(Br)cn2)nc1 [Compound 174]; 0
Fc1cccc(Oc2ncc(Cl)cn2)c1-n1cccn1 [Compound 176]; 100
CON=Cc1cccc(Oc2ncc(Cl)cn2)c1-n1cc(Br)cn1 [Compound 203]; 100
COc1cnc(Oc2cccc(C#N)c2-n2cc(Br)cn2)nc1 [Compound 218]; 100
N#Cc1cc(F)cc(Oc2ncc(Br)cn2)c1-n1cc(Br)cn1 [Compound 239]; 100
FC(F)(F)c1cnn(-c2c(Cl)cccc2Oc2ncc(Br)cn2)c1 [Compound 168]; 100
FC(F)c1cccc(Oc2ncc(Br)cn2)c1-n1cc(Br)cn1 [Compound 231]; 100
Brc1cnn(-c2ccccc2Oc2ncccn2)c1 [Compound 275]; 70
Fc1cccc(Oc2ncc(Cl)cn2)c1-n1cc(I)cn1 [Compound 179]; 100

Data request: Quick one: Foxtail, Giant plant response rating of N#Cc1cccc(Oc2ncc(Cl)cn2)c1-n1cc([N+](=O)[O-])cn1 [Compound 304] ?
Data returned: 0

Data request: Now this one: CS(=O)(=O)c1cccc(Oc2ncc(Cl)cn2)c1-n1cc(Br)cn1 [Compound 142]
Data returned: 0

Data request: Moving on to the next compound: O=[N+]([O-])c1cnc(Oc2ccccc2-n2cc(Br)cn2)nc1 [Compound 225]
Data returned: 0

Data request: Try N#Cc1cccc(Oc2ncc(Cl)cn2)c1-n1cc(-n2ccc(C(F)(F)F)n2)cn1 [Compound 284] next.
Data returned: 90

Data request: Check CCCc1cnc(Oc2cccc(C#N)c2-n2cc(Br)cn2)nc1 [Compound 131] too.
Data returned: 0

###

# System: kochia
# ASSAY_EXPLANATION: Test A preemergence
# Type: in vivo, Kochia scoparia
# RECORDED_CONDITIONS: 125 g ai/ha, 0 to 100 scale where 0 is no effect and 100 is complete control
VALUE_KIND: Plant response rating, Kochia
// print number alone

FCc1cccc(Oc2ncc(F)cn2)c1-n1cc(C(F)(F)F)cn1 [Compound 118]; 100
Fc1cnc(Oc2cccc(F)c2-n2cc(OCC(F)(F)F)cn2)nc1 [Compound 126]; 90

Data request: Field request: Plant response rating, Kochia | item: FC(F)(F)COc1cnn(-c2ccccc2Oc2ncc(Cl)cn2)c1 [Compound 138]
Data returned: 90

Data request: Now the same for FC(F)(F)Sc1cnn(-c2ccccc2Oc2ncc(Cl)cn2)c1 [Compound 132]
Data returned: 100

Data request: Note, next up: FCc1cccc(Oc2ncc(Br)cn2)c1-n1cc(Br)cn1 [Compound 125]
Data returned: 50

###

# Tested on: galium
# ASSAY_EXPLANATION: Test A postemergence
# Assay type: in vivo, Galium aparine
# RECORDED_CONDITIONS: 31 g ai/ha, 0 to 100 scale, 0 no effect, 100 complete control
# Plant response rating, Galium listing for each entry below

CC(C)Cc1cn(-c2c(F)cccc2Oc2ncc(Cl)cn2)nn1 [Compound 107]; 30
Fc1cnc(Oc2ccccc2-n2cc(OCC(F)(F)F)cn2)nc1 [Compound 241]; 40
Fc1cnc(Oc2cccc(Cl)c2-n2cc(OCC(F)(F)F)cn2)nc1 [Compound 109]; 50
Fc1cnc(Oc2cccc(F)c2-n2cc(OCC(F)(F)F)cn2)nc1 [Compound 126]; 20
FCc1cccc(Oc2ncc(Cl)cn2)c1-n1cc(Cl)cn1 [Compound 250]; 10
FC(F)c1cccc(Oc2ncc(Cl)cn2)c1-n1cncc1Br [Compound 259]; 70
FCc1cccc(Oc2ncc(Br)cn2)c1-n1cc(C(F)(F)F)cn1 [Compound 120]; 90
Fc1cccc(Oc2ncc(Cl)cn2)c1-n1cc(OCC(F)(F)F)cn1 [Compound 270]; 60

Please turn your attention to the following entry.
Data request: Value lookup for Plant response rating, Galium; key = Cc1cc(C)n(-c2ccccc2Oc2ncc(Cl)cn2)n1 [Compound 264]
Data returned: 0
